Assay read-out IC50; system under study: Cyclin-dependent kinase 2 (Homo sapiens) (UniProt P24941).
Form entry: value (nM) — number only.

The following compounds have reported results that may help.
INSERT INTO assay_data (smiles_entry, units_text, result_value) VALUES
  ('C[C@@H]1CNc2c(sc3ccc(OCC4CC4)cc23)C(=O)N1', 'nM', 52),
  ('CCNC[C@@H]1CNc2c(sc3ccc(OC)cc23)C(=O)N1', 'nM', 3100),
  ('COc1ccc2sc3c(c2c1)NCCNC3=O', 'nM', 160),
  ('CCCNC[C@@H]1CNc2c(sc3ccc(OC)cc23)C(=O)N1', 'nM', 2600),
  ('COc1ccc2sc3c(c2c1)SCCNC3=O', 'nM', 150),
  ('C[C@@H]1CNc2c(sc3ccc(O)cc23)C(=O)N1', 'nM', 26),
  ('CC(C)COc1ccc2sc3c(c2c1)NC[C@@H](C)NC3=O', 'nM', 11),
  ('COC(=O)COc1ccc2sc3c(c2c1)NC[C@@H](C)NC3=O', 'nM', 3090);

Now for another entry.
Param item = COc1ccc2sc3c(c2c1)NC[C@@H](CN(C)Cc1ccccc1)NC3=O ; retrieve measured IC50.
3170
